Assay: melting temperature (DSF); higher = more thermostable
Can you tell me melting temperature for the items I'm about to list?
Numbers only, in C.

INSERT INTO measurements (biosequence, recorded_measurement) VALUES
  ('VQIGPNPTKSSLEASRGPFSTSQFTVSRPSGYGAGTVYYPTNAGAKVGAIAIVPGFLSYQSSINWWGPRLASHGFVVITIDTYTTGDQPDSRSRQQLAALDQVIALGNTSSSPIYGKVDGSRTGVMGWSMGGGGSLISAKNRPSIKAAAPQAPWNTSTNFSSVTVPTLIFACQSDIVAPVISHAIPFYNSMTRNPKQYLEKTLGDHFCFNNANATVGLKGVAWMKRFVDGDTRYTSFACSNPNAFGFSDFRTARCS [ESM045]', 63.4),
  ('AANPYQRGPAPTAASVAAVTGPFATASVSVPRGNGFGGGVIYYPTDTSQGTFGGLAISPGLNGTWPGIAWLGSRLASQGFIVFGIETNNLNDSPTSRGTQLLAALDYLAQRSSVRSRLDPGRLAVAGHSMGGGGALDAALRRPSLKAAIGNAPYLPSNTLAGNRVPTLIYAMQNDTLVPPSRLTSLYNTIPATTERAYLEITGAGHNYIGQPSTTLARTMIPWLKIFIDNDTRFSQFLCPLADQSGIRQYRSSCPLVPATTRALTAAAG [DP043]', 67.3),
  ('DEIGQAPTAGNITGNGSFTTTSESISSLVSGFGGGRVYYPTTAGKYPVVAISPGFTATWSSLSWIGPRLSSWGFVVVGIETNSIYDQPASRGSQLLAALNWAVNSSSSAVRARVDGSRRGVAGHSMGGGGTLEALAADTTGLVKAGVPIAPWNSDKTWNNVSEPVMIVGGQSDTVAPVASHSIPFYNTLAGPKGYVELTGASHFFPQSTNATLSRALVAWFKRWLNQDSRFTPYTCGFSGLAVSDFRSNAC [ESM090]', 68.5);

Hi team, please reply with melting temperature for each item in this list.
1. AGFEKGPDPTTASVTADRGSYDIAQVDVPKGSGTGFADGTIYYPKSTADGTFGAVAVIPGFLEPKSAIDWYGPRLASQGFVVMTLDTTSVFDTPDSRGGQLLAALDYLTSKSTVKDRIDPNRLAVVGHSMGGGGTLSAAANRPNLKAAVALAPWHVSAPLTSVKTPTMIFGSDNDFIAPDGTFAKPFYDGISNAPEKAYVRLKNAGHMAYVFPDKRIAEYTLSWLKRYVDDDTRYTQFLCPGPTNESTIAAYKSTCPM [DP093]
2. AANPYERGPAPTDAVLEASRGPFATTSYSVSGLSVTGFGGGVVYYPTSTSEGTFGAIAISPGYTATWSSLSWLGPRIASHGFVVIGIETNTLLDQPDSRGRQLLAALDYLVQRSSVRGRIDAGRLAVAGHSMGGGGTLEAAAARPSLQAAVPLAPWNLDKTWSGVTVPTLIVGGESDSVAPVASHSVPFYNSIPASSEKAYLELNGASHFFPQSVNTPTAKQMVAWLKRFVDNDTRYEQFLCPGPSGLAIEEYRNTCPSS [TEP018]
3. MRPGRVCPDSCGCRPSSRRKDATIVQQLRNETIGSPSPHRAPRRFRPRLVRAGLAALLAAGGLFTAQSGSAGAAQNPYERGPAPTVSSIEAPRGPYAVSETRVSSLGVTGFGGGTLYYPTTTRDGTFGAVAISPGYGGTQSSISWLGPRLASQGFVVFTIDTLSTLDQPAGRGGQLLAALDYLTQRSSVRDRVDSGRLGVMGHSMGGGGSLEAAKSRPALQAAIPLTGWNLDKTWQELRTPTLVVGADGDTIAPVSSHSEPFYESLAGSLDKAYLELNGASHFTPNSSNTTIAKYSVSWLKRFIDNDLRYEQFLCPLPRPGATIEEYRGNCPHTS [TEP099]

Key:
46.6
40.6
50.2
